Biological target: T1, PDLIM3, Q53GG5
T1 sequence (Q53GG5 1-94, limits assumed, looked up): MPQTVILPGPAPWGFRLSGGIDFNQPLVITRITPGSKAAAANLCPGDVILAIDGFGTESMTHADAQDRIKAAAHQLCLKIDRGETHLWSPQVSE
Assay: holdup assay
Design: key: below the threshold = too weak to quantify, mostly under pKd 3.1 to 4
Conditions: plain residues with an end cap or a label only (N-terminal biotin on a linker: ttds)
Assay Metric: pKd

binder="SRSRRRETAL [HPV33-E6, P06427]" result="below the threshold"
binder="SSIDLWETAL [SLC15A5, A6NIM6]" result="below the threshold"
binder="KLVIKTETTV [RASSF6, Q6ZTQ3]" result="below the threshold"
